Test system: HeLa (human cervical cancer) cell line
Experiment: Cytotoxicity, MTT method
Type: cell-based
Details: HeLa cells, 72 h, MTT; read-out: HeLa IC50 (antiproliferative activity / cytotoxicity)
Experimental: A cytotoxicity test was performed using the HeLa (human cervical cancer) cell line according to the MTT method. Cells were from the ATCC (Manassas, VA, USA). […] The antiproliferative activity was measured in triplicate after 72 h using the MTT (3-(4,5-dimethylthiazol-2-yl)-2,5-diphenyltetrazolium bromide) Cell Proliferation Kit (Roche, Boston, MA, USA), following the manufacturer’s specifications. […]
Metric: IC50 (µM)

1) Cc1cc(C(=C2C=CC(=N)C=C2)c2ccc(N)cc2)ccc1N [Fuchsine] = 1

====

test system: parasitic females of S. venezuelensis; experiment: Staining of adult females by the dyes; type: cell-based, Strongyloides venezuelensis; conditions: 10 µM
Metric: Staining of parasitic females

1. Cc1cc(C(=C2C=CC(=N)C=C2)c2ccc(N)cc2)ccc1N [Fuchsine] = No
2. CC[N+](C)(CC)CCC[n+]1c(-c2ccccc2)c2cc(N)ccc2c2ccc(N)cc21.[I-].[I-] [Propidium Iodide] = Yes
3. CN(C)c1ccc(C(=C2C=CC(=[N+](C)C)C=C2)c2ccc(N(C)C)cc2)cc1 [Crystal Violet] = No
4. CN(C)c1ccc2nc3ccc(=[N+](C)C)cc-3sc2c1 [Methylene Blue] = Yes

====

system: S. venezuelensis L3s; experiment: microbe, parasite or virus in culture; conditions: read-out: IC50 72 h (immobilization concentration 50 of cultured L3s); L3s, 72 h
Collected IC50 values appear next to each entry.
Metric: IC50 (µM)

1. Cc1cc(C(=C2C=CC(=N)C=C2)c2ccc(N)cc2)ccc1N = 3.2
2. CC[N+](C)(CC)CCC[n+]1c(-c2ccccc2)c2cc(N)ccc2c2ccc(N)cc21.[I-].[I-] [Propidium Iodide] = 4.3
3. CN(C)c1ccc2nc3ccc(=[N+](C)C)cc-3sc2c1 = 4.3

====

system: S. venezuelensis L3s; assay: microbe, parasite or virus in culture; settings: read-out: IC50 72 h (immobilization concentration 50 of cultured L3s); L3s, 72 h
Metric: IC50

1) Oc1ccc2ccccc2c1N=Nc1ccc(N=Nc2ccccc2)cc1 [Sudan III] = > 40 µM
2) O=C1/C(=C2\Nc3ccc(S(=O)(=O)[O-])cc3C2=O)Nc2ccc(S(=O)(=O)[O-])cc21.[Na+].[Na+] [Indigo Carmine] = > 40 µM
3) CN(C)c1ccc(N=Nc2ccc(S(=O)(=O)[O-])cc2)cc1.[Na+] [Methyl Orange] = > 40 µM
4) O=[N+]([O-])c1ccc2c(N=Nc3ccc4ccccc4c3O)c(O)cc(S(=O)(=O)[O-])c2c1.[Na+] [Eriochrome Black T] = > 40 µM
